Cited source for all entries: paper PMC6100082

This section lists IC50 readings for UniProtKB P35968.
Sequence (P35968 20-1356, species assumed): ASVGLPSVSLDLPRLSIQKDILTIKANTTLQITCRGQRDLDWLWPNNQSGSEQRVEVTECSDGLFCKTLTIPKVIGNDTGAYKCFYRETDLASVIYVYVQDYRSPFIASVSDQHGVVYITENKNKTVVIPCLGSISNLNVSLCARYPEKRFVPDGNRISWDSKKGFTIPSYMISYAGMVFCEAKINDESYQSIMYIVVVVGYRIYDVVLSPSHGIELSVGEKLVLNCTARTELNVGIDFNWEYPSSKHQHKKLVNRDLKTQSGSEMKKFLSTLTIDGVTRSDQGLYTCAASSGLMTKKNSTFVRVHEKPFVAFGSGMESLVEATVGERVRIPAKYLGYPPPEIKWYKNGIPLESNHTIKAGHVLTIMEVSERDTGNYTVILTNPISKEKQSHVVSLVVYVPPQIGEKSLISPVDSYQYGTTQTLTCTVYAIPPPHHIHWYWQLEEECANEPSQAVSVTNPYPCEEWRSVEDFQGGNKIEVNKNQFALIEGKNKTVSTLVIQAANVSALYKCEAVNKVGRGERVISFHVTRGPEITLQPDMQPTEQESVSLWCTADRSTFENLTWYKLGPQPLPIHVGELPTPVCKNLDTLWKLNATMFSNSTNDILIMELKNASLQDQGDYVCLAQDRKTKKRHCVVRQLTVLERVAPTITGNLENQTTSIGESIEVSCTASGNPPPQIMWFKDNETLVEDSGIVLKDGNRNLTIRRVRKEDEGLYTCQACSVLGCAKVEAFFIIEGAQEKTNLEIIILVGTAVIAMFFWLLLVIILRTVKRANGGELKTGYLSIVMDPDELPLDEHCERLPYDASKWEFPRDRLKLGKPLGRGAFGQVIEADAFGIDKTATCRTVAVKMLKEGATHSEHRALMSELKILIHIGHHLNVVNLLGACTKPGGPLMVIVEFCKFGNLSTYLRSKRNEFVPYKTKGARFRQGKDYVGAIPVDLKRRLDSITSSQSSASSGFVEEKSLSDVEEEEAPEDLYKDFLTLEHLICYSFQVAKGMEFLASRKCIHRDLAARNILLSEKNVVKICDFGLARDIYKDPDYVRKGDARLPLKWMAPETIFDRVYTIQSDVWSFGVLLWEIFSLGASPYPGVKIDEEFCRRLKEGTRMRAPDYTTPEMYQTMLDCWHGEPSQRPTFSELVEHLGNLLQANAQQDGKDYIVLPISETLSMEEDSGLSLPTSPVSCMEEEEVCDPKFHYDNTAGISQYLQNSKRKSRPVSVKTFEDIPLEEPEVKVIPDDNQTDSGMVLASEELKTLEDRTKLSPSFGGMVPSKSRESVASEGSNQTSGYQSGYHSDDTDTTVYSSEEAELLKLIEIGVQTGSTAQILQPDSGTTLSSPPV
Give bare numbers, in µM.

{"line notation": "COc1ccc(-c2ccc(NC(=O)Nc3cccc(C(F)(F)F)c3)c(C)n2)cc1", "IC50 / µM": 5}

stdin: Request the reported IC50 associated with `COc1ccc(-c2ccc(NC(=O)Nc3ccc(Cl)c(C(F)(F)F)c3)c(C)n2)cc1`
stdout: 3.93

* * *

test system: TK-10; experiment: NCI one-dose SRB assay (Renal Cancer); type: cell-based, human; details: Homo sapiens; TK-10, 10 μM; read-out: Percentage growth inhibition (GI%)
property measured: inhibition at 10 µM

Worked set:
{"molecule": "COc1ccc(-c2ccc(NC(=O)Nc3cccc(C(F)(F)F)c3)c(C)n2)cc1 [Compound 8b]", "study target": "TK-10", "inhibition at 10 µM": "24%"}
{"molecule": "COc1ccc(-c2ccc(NC(=O)Nc3cccc(Cl)c3)c(C)n2)cc1OC [Compound 8j]", "study target": "TK-10", "inhibition at 10 µM": "< 10%"}

I would be grateful if you could provide inhibition at 10 µM for each of the following entries.
1. COc1cccc(NC(=O)Nc2ccc(-c3ccc(OC)c(OC)c3)nc2C)c1 [Compound 8m]
2. COc1ccc(-c2ccc(NC(=O)Nc3cccc(C(F)(F)F)c3)c(C)n2)cc1OC [Compound 8i]
3. COc1ccc(NC(=O)Nc2ccc(-c3ccc(OC)c(OC)c3)nc2C)cc1 [Compound 8n]
4. COc1ccc(-c2ccc(NC(=O)Nc3ccc(Cl)c(C(F)(F)F)c3)c(C)n2)cc1 [Compound 8e]
5. COc1ccc(-c2ccc(NC(=O)Nc3ccc(Cl)cc3)c(C)n2)cc1 [Compound 8d]

stdout:
< 10%
21%
40%
35%
< 10%

* * *

tested on: A549/ATCC; assay: NCI one-dose SRB assay (Non-Small Cell Lung Cancer); assay type: cell-based, human; settings: Homo sapiens, 10 μM, read-out: Percentage growth inhibition (GI%)
Consider the following molecules; for each one, report its inhibition at 10 µM.
Answers are plain numbers, in %.

I would be grateful if you could provide inhibition at 10 µM for each of the following entries.
1. COc1cccc(NC(=O)Nc2ccc(-c3ccc(OC)c(OC)c3)nc2C)c1
2. COc1ccc(-c2ccc(NC(=O)Nc3ccc(Cl)c(C(F)(F)F)c3)c(C)n2)cc1
3. COc1ccc(-c2ccc(NC(=O)Nc3cccc(C(F)(F)F)c3)c(C)n2)cc1
4. COc1ccc(-c2ccc(NC(=O)Nc3cccc(Cl)c3)c(C)n2)cc1OC

stdout:
1: 10; 2: 62; 3: 58; 4: 39

* * *

system: A498; assay: NCI one-dose SRB assay (Renal Cancer); type: cell-based, human; conditions: Homo sapiens; A498, 10 μM; read-out: Percentage growth inhibition (GI%)
Classify by measured inhibition at 10 µM: YES if it is equal to or exceeds 40%, NO if it is smaller.

For orientation, consider the following solved cases.
{"molecule": "COc1ccc(NC(=O)Nc2ccc(-c3ccc(OC)c(OC)c3)nc2C)cc1 [Compound 8n]", "label class": "NO"}
{"molecule": "COc1ccc(-c2ccc(NC(=O)Nc3ccc(Cl)c(C(F)(F)F)c3)c(C)n2)cc1 [Compound 8e]", "label class": "YES"}
{"molecule": "COc1ccc(-c2ccc(NC(=O)Nc3cccc(C(F)(F)F)c3)c(C)n2)cc1 [Compound 8b]", "label class": "YES"}
{"molecule": "COc1cccc(NC(=O)Nc2ccc(-c3ccc(OC)c(OC)c3)nc2C)c1 [Compound 8m]", "label class": "NO"}
{"molecule": "COc1ccc(-c2ccc(NC(=O)Nc3ccc(Cl)cc3)c(C)n2)cc1 [Compound 8d]", "label class": "NO"}

Field: next molecule
stdin: Is the recorded value of inhibition at 10 µM equal to or greater than 40% for this molecule? COc1ccc(-c2ccc(NC(=O)Nc3cccc(Cl)c3)c(C)n2)cc1OC [Compound 8j]
stdout: NO

* * *

system: SK-MEL-28; assay: NCI one-dose SRB assay (Melanoma); type: cell-based, human; conditions: Homo sapiens; SK-MEL-28, 10 μM; read-out: Percentage growth inhibition (GI%)
Consider the following molecules; for each one, report its inhibition at 10 µM.
Answers are plain numbers, in %.

{"molecule": "COc1ccc(-c2ccc(NC(=O)Nc3cccc(C(F)(F)F)c3)c(C)n2)cc1 [Compound 8b]", "study target": "SK-MEL-28", "inhibition at 10 µM [%]": 31}
{"molecule": "COc1ccc(-c2ccc(NC(=O)Nc3cccc(Cl)c3)c(C)n2)cc1OC [Compound 8j]", "study target": "SK-MEL-28", "inhibition at 10 µM [%]": 21}
{"molecule": "COc1ccc(-c2ccc(NC(=O)Nc3cccc(C(F)(F)F)c3)c(C)n2)cc1OC [Compound 8i]", "study target": "SK-MEL-28", "inhibition at 10 µM [%]": 25}

I would be grateful if you could provide inhibition at 10 µM for each of the following entries.
1. COc1ccc(-c2ccc(NC(=O)Nc3ccc(Cl)cc3)c(C)n2)cc1 [Compound 8d]
2. COc1ccc(-c2ccc(NC(=O)Nc3ccc(Cl)c(C(F)(F)F)c3)c(C)n2)cc1 [Compound 8e]

stdout:
1. 11
2. 29

stdin: Request the reported inhibition at 10 µM associated with COc1ccc(NC(=O)Nc2ccc(-c3ccc(OC)c(OC)c3)nc2C)cc1 [Compound 8n]
stdout: 14

* * *

Consider the following molecules; for each one, report its Growth Percent.
tested on: IGROV1; test: NCI one-dose SRB assay (Ovarian Cancer); assay type: cell-based, human; settings: IGROV1, 1.00E-5 Molar
One number for each entry, in %.

{"molecule": "COc1ccc(-c2ccc(NC(=O)Nc3ccc(Cl)cc3)c(C)n2)cc1 [Compound 8d]", "property measured": "Growth Percent", "scale unit": "%", "reported measurement": 83.85}
{"molecule": "COc1ccc(NC(=O)Nc2ccc(-c3ccc(OC)c(OC)c3)nc2C)cc1 [Compound 8n]", "property measured": "Growth Percent", "scale unit": "%", "reported measurement": 77.14}
{"molecule": "COc1ccc(-c2ccc(NC(=O)Nc3ccc(Cl)c(C(F)(F)F)c3)c(C)n2)cc1 [Compound 8e]", "property measured": "Growth Percent", "scale unit": "%", "reported measurement": 52.86}

Here's the next entry for you.
stdin: Request the reported Growth Percent associated with COc1ccc(-c2ccc(NC(=O)Nc3cccc(C(F)(F)F)c3)c(C)n2)cc1 [Compound 8b]
stdout: 91.33

* * *

test system: NCI-H322M; test: NCI one-dose SRB assay (Non-Small Cell Lung Cancer); assay type: cell-based, human; details: Homo sapiens, 10 μM, read-out: Percentage growth inhibition (GI%)
Classify by measured inhibition at 10 µM: true if it is equal to or exceeds 30%, false if it is smaller.

For orientation, consider the following solved cases.
{"line notation": "COc1ccc(NC(=O)Nc2ccc(-c3ccc(OC)c(OC)c3)nc2C)cc1", "label class": "false"}
{"line notation": "COc1ccc(-c2ccc(NC(=O)Nc3cccc(C(F)(F)F)c3)c(C)n2)cc1OC", "label class": "false"}
{"line notation": "COc1ccc(-c2ccc(NC(=O)Nc3ccc(Cl)c(C(F)(F)F)c3)c(C)n2)cc1", "label class": "false"}
{"line notation": "COc1ccc(-c2ccc(NC(=O)Nc3cccc(C(F)(F)F)c3)c(C)n2)cc1", "label class": "true"}
{"line notation": "COc1ccc(-c2ccc(NC(=O)Nc3ccc(Cl)cc3)c(C)n2)cc1", "label class": "true"}

stdin: Is the recorded value of inhibition at 10 µM equal to or greater than 30% for this molecule? `COc1ccc(-c2ccc(NC(=O)Nc3cccc(Cl)c3)c(C)n2)cc1OC`
stdout: false

stdin: Is the recorded value of inhibition at 10 µM equal to or greater than 30% for this molecule? `COc1cccc(NC(=O)Nc2ccc(-c3ccc(OC)c(OC)c3)nc2C)c1`
stdout: false

* * *

system: HCT-116; assay: NCI one-dose SRB assay (Colon Cancer); format: cell-based, human; settings: Homo sapiens; HCT-116, 10 μM; read-out: Percentage growth inhibition (GI%)
property measured: inhibition at 10 µM (%)
One number for each entry, in %.

Worked set:
{"line notation": "COc1cccc(NC(=O)Nc2ccc(-c3ccc(OC)c(OC)c3)nc2C)c1", "reported measurement": 22}
{"line notation": "COc1ccc(-c2ccc(NC(=O)Nc3ccc(Cl)c(C(F)(F)F)c3)c(C)n2)cc1", "reported measurement": 77}
{"line notation": "COc1ccc(NC(=O)Nc2ccc(-c3ccc(OC)c(OC)c3)nc2C)cc1", "reported measurement": 51}
{"line notation": "COc1ccc(-c2ccc(NC(=O)Nc3cccc(Cl)c3)c(C)n2)cc1OC", "reported measurement": 37}
{"line notation": "COc1ccc(-c2ccc(NC(=O)Nc3cccc(C(F)(F)F)c3)c(C)n2)cc1", "reported measurement": 74}
{"line notation": "COc1ccc(-c2ccc(NC(=O)Nc3ccc(Cl)cc3)c(C)n2)cc1", "reported measurement": 24}

Here's the next entry for you.
stdin: // lookup inhibition at 10 µM | system=HCT-116 | key= `COc1ccc(-c2ccc(NC(=O)Nc3cccc(C(F)(F)F)c3)c(C)n2)cc1OC`
stdout: 83
